Assignment: determine reported melting point for the given compounds.

Prompt: Would you kindly share the measured melting point for `Cn1cc(COc2ccc(O)cc2)cn1` ?
Response: 186 to 188 °C

Prompt: Would you kindly share the measured melting point for CCC1C(=O)NC(=S)N(c2ccc(Cl)cc2)C1=O (stereo not drawn) ?
Response: 148 to 150 °C

Prompt: Would you kindly share the measured melting point for `O=C(O)CCC(=O)N1CCc2sccc2C1` ?
Response: 130 to 132 °C

Prompt: Would you kindly share the measured melting point for `CC(C)C(=O)Nc1cc(C(=O)O)c(F)cc1F` ?
Response: 233 to 235 °C

Prompt: Would you kindly share the measured melting point for `Cc1cc(N)nn1-c1ccccc1Cl` ?
Response: 63 to 65 °C

Prompt: Would you kindly share the measured melting point for `Cc1cn2c(CC(=O)O)csc2n1` ?
Response: 211 to 213 °C

Prompt: Would you kindly share the measured melting point for `Nc1nc(-c2ccc(NC(=O)c3ccccc3)cc2)cs1` ?
Response: 216 to 218 °C

Prompt: Would you kindly share the measured melting point for `Cn1ncc(-c2nc(C3CC3)no2)c1N` ?
Response: 159 to 161 °C

Prompt: Would you kindly share the measured melting point for `O=C(O)C1(c2ccc3c(c2)OCO3)CCCCC1` ?
Response: 176 to 178 °C

Prompt: Would you kindly share the measured melting point for `O=C(O)c1cc(F)cc(S(=O)(=O)Cl)c1Br` ?
Response: 186 to 188 °C

Prompt: Would you kindly share the measured melting point for `CS(=O)(=O)c1ccc(NN)cc1` ?
Response: 132 to 134 °C

Prompt: Would you kindly share the measured melting point for `CCc1ncsc1C(=O)O` ?
Response: 193 to 195 °C

Prompt: Would you kindly share the measured melting point for `NS(=O)(=O)c1ccc(NCCC(=O)O)c([N+](=O)[O-])c1` ?
Response: 175 to 177 °C

----------
MEASURE: melting point

Prompt: Would you kindly share the measured melting point for `CC(C)COC(=O)Nc1cccc(N)c1` ?
Response: 92 to 94 °C

Prompt: Would you kindly share the measured melting point for `CCCCCOc1ccc2cc(C(=O)O)[nH]c2c1` ?
Response: 162 to 164 °C

Prompt: Would you kindly share the measured melting point for `Cc1ccc([N+](=O)[O-])c2cccnc12` ?
Response: 87 to 89 °C

Prompt: Would you kindly share the measured melting point for `CC(C)(C(=O)NO)c1ccccc1` ?
Response: 144 to 146 °C

Prompt: Would you kindly share the measured melting point for `NS(=O)(=O)Cc1ccccc1Cl` ?
Response: 104 to 106 °C

Prompt: Would you kindly share the measured melting point for `O=C(O)c1cc(C(=O)O)cc(S(=O)(=O)Cl)c1` ?
Response: 217 to 219 °C

Prompt: Would you kindly share the measured melting point for `CN(C)c1ncnc(Cl)c1CCl` ?
Response: 64 to 66 °C

Prompt: Would you kindly share the measured melting point for `O=C(O)Cn1c(-c2cccc(Cl)c2Cl)nc2ccccc21` ?
Response: 235 to 237 °C

Prompt: Would you kindly share the measured melting point for CC(NC(=O)OC(C)(C)C)c1ccc(-c2cccc(C#N)c2)cc1 (stereo not drawn) ?
Response: 103 to 105 °C

Prompt: Would you kindly share the measured melting point for CCCC(NC(=O)NCc1ccc(Br)cc1)C(=O)O (stereo not drawn) ?
Response: 160 to 162 °C

Prompt: Would you kindly share the measured melting point for `COc1ccc2nc(CCl)[nH]c2n1` ?
Response: 151 to 153 °C

Prompt: Would you kindly share the measured melting point for `N#Cc1c(C(F)(F)F)cc(=O)[nH]c1SCC(=O)O` ?
Response: 200 to 204 °C

Prompt: Would you kindly share the measured melting point for `O=C(CCl)NCc1ccccc1CS(=O)(=O)N1CCOCC1` ?
Response: 118 to 120 °C

Prompt: Would you kindly share the measured melting point for `O=c1[nH]cnc2ncccc12` ?
Response: 249 to 251 °C

Prompt: Would you kindly share the measured melting point for `CCOC(=O)/C(C#N)=C\Nc1cc(F)ccc1F` ?
Response: 164 to 166 °C

Prompt: Would you kindly share the measured melting point for CN(CC(=O)N1CCCC(C(=O)O)C1)c1ccc(Cl)cn1 (stereo not drawn) ?
Response: 184 to 186 °C

Prompt: Would you kindly share the measured melting point for CC1N=C(S)N(Cc2ccccc2)C1=O (stereo not drawn) ?
Response: < 17 °C

Prompt: Would you kindly share the measured melting point for `O=C1CCCN1CO` ?
Response: 79 to 81 °C

Prompt: Would you kindly share the measured melting point for CC(C)(C)OC(=O)NC(CN)C1CC1 (stereo not drawn) ?
Response: 57 to 59 °C

Prompt: Would you kindly share the measured melting point for CC(C)(C)C(Br)C(=O)O (stereo not drawn) ?
Response: 62 to 64 °C

Prompt: Would you kindly share the measured melting point for `Cc1cc(Cl)c(S(=O)(=O)Cl)cc1[N+](=O)[O-]` ?
Response: 129 to 131 °C

Prompt: Would you kindly share the measured melting point for `Clc1cc(Cl)c2c(n1)NCC2` ?
Response: 149 to 151 °C

Prompt: Would you kindly share the measured melting point for O=S1(=O)CCCC(O)C1 (stereo not drawn) ?
Response: 99 to 101 °C

Prompt: Would you kindly share the measured melting point for `Nc1cccc2[nH]cnc12` ?
Response: 110 to 112 °C

Prompt: Would you kindly share the measured melting point for `FC(F)(F)CNc1ccncc1` ?
Response: 157 to 159 °C

Prompt: Would you kindly share the measured melting point for CC1CCCC(C)N1C(=O)COc1ccc(C(=O)O)cc1 (stereo not drawn) ?
Response: 205 to 215 °C

Prompt: Would you kindly share the measured melting point for `N#Cc1ccc(SCCC(=O)O)cc1` ?
Response: 86 to 88 °C

Prompt: Would you kindly share the measured melting point for CC1CN(c2ccccc2N)CC(C)O1 (stereo not drawn) ?
Response: 83 to 85 °C
